protocol.description: Apparent permeability of the compound from apical to basolateral side of human Caco2 cells up to 95 mins by LC-MS/MS analysis
test.settings: Caco-2
attribute.measured: Papp A→B at 95 min (×10⁻⁶ cm/s)
# number only, unit ×10⁻⁶ cm/s dropped from output

Prompt line: Sample `CCOC(=O)CNC(=O)/C=C/c1oc2ccc(Cl)c(Oc3ccncc3C(=O)N3CCN(C4CC4)c4ccccc43)c2c1C` — what was its Papp A→B at 95 min?
Response line: 1.04

Prompt line: Sample `Cc1coc2cc(Cl)c(Oc3ccncc3C(=O)N3CCN(C4CC4)c4ccccc43)cc12` — what was its Papp A→B at 95 min?
Response line: 2.1

* * *

measured.target: G-protein coupled bile acid receptor 1 (Homo sapiens)
Sequence (Q8TDU6 whole entry): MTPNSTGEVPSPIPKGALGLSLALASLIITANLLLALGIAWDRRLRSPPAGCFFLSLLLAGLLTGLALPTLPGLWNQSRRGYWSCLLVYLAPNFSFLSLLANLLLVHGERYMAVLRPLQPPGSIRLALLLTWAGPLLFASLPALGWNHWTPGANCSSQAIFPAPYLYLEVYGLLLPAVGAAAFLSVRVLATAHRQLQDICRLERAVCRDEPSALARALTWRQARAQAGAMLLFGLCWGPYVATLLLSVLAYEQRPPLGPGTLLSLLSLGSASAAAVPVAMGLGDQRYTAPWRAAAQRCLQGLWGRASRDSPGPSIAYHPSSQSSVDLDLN
protocol.description: Agonist activity at human TGR5 expressed in HEK293 cells co-expressing CRE after 5.5 hrs by luciferase reporter gene assay
Assay type: functional, cell-based
attribute.measured: EC50 (nM)
# number only, unit nM dropped from output

Prompt line: Sample `Cc1noc2ccc(Oc3ccncc3C(=O)N3CCN(C4CC4)c4ccccc43)cc12` — what was its EC50?
Response line: 1.5

Prompt line: Sample `CCOC(=O)CNC(=O)Cc1coc2cc(Cl)c(Oc3ccncc3C(=O)N3CCN(C4CC4)c4ccccc43)cc12` — what was its EC50?
Response line: 520

Prompt line: Sample `CCOC(=O)c1oc2cc(Cl)c(Oc3ccncc3C(=O)N3CCN(C4CC4)c4ccccc43)cc2c1C` — what was its EC50?
Response line: 38

The measurements presented in this section are drawn from ChEMBL document CHEMBL3286383.
